# ASSAYED_SYSTEM: EPHB2 (UniProt P29323)
# Sequence (P29323 whole entry, looked up): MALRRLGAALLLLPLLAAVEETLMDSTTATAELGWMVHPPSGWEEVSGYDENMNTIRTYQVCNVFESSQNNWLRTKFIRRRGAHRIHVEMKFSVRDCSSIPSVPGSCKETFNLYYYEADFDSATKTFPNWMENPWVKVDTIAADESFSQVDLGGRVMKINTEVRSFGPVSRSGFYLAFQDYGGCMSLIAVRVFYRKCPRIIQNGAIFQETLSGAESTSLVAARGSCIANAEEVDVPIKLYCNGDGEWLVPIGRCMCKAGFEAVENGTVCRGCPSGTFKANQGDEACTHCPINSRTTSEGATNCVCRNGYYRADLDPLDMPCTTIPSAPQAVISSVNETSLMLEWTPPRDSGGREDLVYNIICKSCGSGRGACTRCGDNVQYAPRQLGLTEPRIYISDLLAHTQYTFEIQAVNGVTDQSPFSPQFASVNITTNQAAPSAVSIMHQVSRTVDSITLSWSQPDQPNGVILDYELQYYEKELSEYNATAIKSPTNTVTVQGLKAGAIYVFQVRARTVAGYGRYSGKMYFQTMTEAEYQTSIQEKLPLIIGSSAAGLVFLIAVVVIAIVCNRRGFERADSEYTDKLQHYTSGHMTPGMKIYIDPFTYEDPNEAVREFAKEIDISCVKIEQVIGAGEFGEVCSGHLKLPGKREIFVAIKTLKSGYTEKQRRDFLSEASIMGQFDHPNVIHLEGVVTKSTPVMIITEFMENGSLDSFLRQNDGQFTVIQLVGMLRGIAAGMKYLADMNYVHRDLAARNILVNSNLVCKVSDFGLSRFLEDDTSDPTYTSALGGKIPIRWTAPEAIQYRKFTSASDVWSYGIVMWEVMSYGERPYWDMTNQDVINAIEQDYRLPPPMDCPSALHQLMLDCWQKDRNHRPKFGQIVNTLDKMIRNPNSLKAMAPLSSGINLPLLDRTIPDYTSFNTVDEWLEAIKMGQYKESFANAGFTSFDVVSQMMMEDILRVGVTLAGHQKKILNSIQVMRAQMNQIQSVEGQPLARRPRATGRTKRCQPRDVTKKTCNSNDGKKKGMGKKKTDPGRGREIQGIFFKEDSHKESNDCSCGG
# RUN_DESCRIPTION: phosphorylation enrichment, bacterial display (enrichment ratio); higher = better substrate or ligand; peptides without Tyr show the background;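 also: 11-residue human phosphosite peptides and single-mutation variants displayed on the E. coli surface, counted by deep sequencing, each peptide's frequency after selection divided by its frequency in the unselected input library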;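 also: frequency after pTyr selection over input frequency; kinase dosed for 20-30% of maximal phosphorylation in three min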
TEST_READOUT: phosphorylation enrichment
Kindly provide the number alone.

Below: 3 sequences and their reported phosphorylation enrichment.
ADYPDYKYRPR [SOX11_Y116]: 0.489
YSSLGYPPPEG [ZSWIM4_Y87]: 0.508
PFTRNYFVRAV [CYBA_Y87_YF]: 0.708

Moving on to the next sequence.
Enquiry: Would you kindly share the measured phosphorylation enrichment for RMGNLYDIDED [GRIN2A_Y1246] ?
Return: 0.491

---

# Tested on: c-Src
# RUN_DESCRIPTION: phosphorylation enrichment, bacterial display (enrichment ratio); higher = better substrate or ligand; peptides without Tyr show the background
TEST_READOUT: phosphorylation enrichment
Kindly provide the number alone.

SLIERYEPSET [PLCD1_Y258]: 0.497
IRKKFYRAILE [CHD7_Y1218_Q1214R_YF]: 0.658
LSPPVYLTNEW [NRK_Y885_I880L]: 0.909
FQQLFYLLQIN [IQGAP2_Y890_T894I_YF]: 0.639
GENTVYAQVFN [LY9_Y603_M602V]: 5.05

Enquiry: I'm curious: which phosphorylation enrichment was measured for GPRSLYNGLVA [UCP2_Y79] tested on c-Src?
Return: 0.509

---

Each entry below carries its reported phosphorylation enrichment.
# ASSAYED_SYSTEM: EPHB2 (UniProt P29323)
# RUN_DESCRIPTION: phosphorylation enrichment, bacterial display (enrichment ratio); higher = better substrate or ligand; peptides without Tyr show the background
Kindly provide the number alone.

LHQSTYQCFDV [SLC7A14_Y693_R695C_YF]: 0.896
CTTIHYMYMCN [TP53_Y234_N235M]: 0.517
NFFDTYIKTCL [IQGAP2_Y1445_YF]: 0.731
ALAAPYVLFPS [CEFIP_Y1332_G1337S_YF]: 0.502
NFAKMYCNPDA [KNL1_Y489_YF]: 0.706
KVITDYYVDMK [MPP4_Y566]: 0.865
AIYRRYSKFFD [SH3PXD2B_Y45]: 0.568
RFLRGYRQFAF [HLA-A_Y137_D140Y_YF]: 0.514
PHMQTYEVDLN [SDHB_Y61]: 0.797
QFFQSYFNNNF [ZNF236_Y644]: 0.29

Enquiry: Would you kindly share the measured phosphorylation enrichment for EIKLAYRRRPP [GRIN2B_Y1109_E1106K] ?
Return: 0.617

Enquiry: Ok, now KILGRYFETGS [PAX2_Y72_YF]
Return: 0.467

Enquiry: Ok, now SRDTCYLVLAV [AMH_Y195_R194C]
Return: 0.684

Enquiry: Ok, now CGTPDYIDPEI [PRKCG_Y521_A523D]
Return: 0.725

Enquiry: Ok, now IDDNEYAFLKA [HNF4A_Y286_YF]
Return: 0.597

---

# Test system: c-Abl (mouse)
# RUN_DESCRIPTION: phosphorylation enrichment, bacterial display (enrichment ratio); higher = better substrate or ligand; peptides without Tyr show the background
TEST_READOUT: phosphorylation enrichment

Enquiry: Would you kindly share the measured phosphorylation enrichment for LHAAAYWNALA [UQCRC2_Y182_R183W] ?
Return: 0.582

Enquiry: Ok, now QGRQTYLPQPA [DDR2_Y813]
Return: 0.844

Enquiry: Ok, now FTRNFYVRAVL [CYBA_Y88_YF]
Return: 1.57

Enquiry: Ok, now VLVSQYEKLNA [AMZ2_Y26]
Return: 0.578

Enquiry: Ok, now SDYSRYARTSI [TERT_Y949_S948R]
Return: 0.46
